- systemName: T1, human VPAC1 (human, UniProt P32241 31-457)
- T1 sequence (looked up): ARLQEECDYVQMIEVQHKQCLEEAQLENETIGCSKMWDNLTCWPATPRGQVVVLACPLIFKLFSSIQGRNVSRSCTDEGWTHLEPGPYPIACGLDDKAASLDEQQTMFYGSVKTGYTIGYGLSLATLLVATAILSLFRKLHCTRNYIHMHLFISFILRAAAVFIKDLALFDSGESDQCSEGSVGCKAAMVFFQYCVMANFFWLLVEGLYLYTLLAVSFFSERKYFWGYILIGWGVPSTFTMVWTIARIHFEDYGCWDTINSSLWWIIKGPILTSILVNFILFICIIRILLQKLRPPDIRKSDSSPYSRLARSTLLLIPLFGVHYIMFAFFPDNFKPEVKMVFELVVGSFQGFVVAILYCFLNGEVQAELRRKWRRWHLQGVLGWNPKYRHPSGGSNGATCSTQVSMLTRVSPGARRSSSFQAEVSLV
- testDescription: cell-based or functional assay
Primed or numbered codes have the meaning given here. Where no end group is shown, it is not given here. [ ]: non-standard residue; d: D form. Glc = glucose on Ser (glucosylated Ser); Lac′ = lactose, glycoside on Ser; Nva = CCC[C@H](N)C(=O)O; Sar = CNCC(=O)O
Listing of entries alongside the reported cAMP stimulation Emax.
propertyMeasured: cAMP stimulation Emax (%)

- binder: "HSDGIFTDSYSRYRKQ[Nva]AVKKYLS(Glc)S(Glc)-NH2 [CRA-DV-3024]"
  number: 127
- binder: "HSD[Sar]IFTDSYSRYRKQ[Nva]AVKKYLS(Lac′)-NH2 [CRA-TG-3027]"
  number: 90
- binder: "HSDAIFTDSYSRYRKQ[Nva]AVKKYLS(Lac′)-NH2 [CRA-TG-3026]"
  number: 95
- binder: "HSDGIFTDSYSRYRKQ[Nva]AVKKYLS-NH2 (not fully specified) [CRA-DV-3022]"
  number: 94

Reference source for all entries: patent US20240352075A1
